B1: ATP-dependent RNA helicase DBP5 (Saccharomyces cerevisiae), P20449 (parent)
chain: MSDTKRDPADLLASLKIDNEKEDTSEVSTKETVKSQPEKTADSIKPAEKLVPKVEEKKTKQEDSNLISSEYEVKVKLADIQADPNSPLYSAKSFDELGLAPELLKGIYAMKFQKPSKIQERALPLLLHNPPRNMIAQSQSGTGKTAAFSLTMLTRVNPEDASPQAICLAPSRELARQTLEVVQEMGKFTKITSQLIVPDSFEKNKQINAQVIVGTPGTVLDLMRRKLMQLQKIKIFVLDEADNMLDQQGLGDQCIRVKRFLPKDTQLVLFSATFADAVRQYAKKIVPNANTLELQTNEVNVDAIKQLYMDCKNEADKFDVLTELYGLMTIGSSIIFVATKKTANVLYGKLKSEGHEVSILHGDLQTQERDRLIDDFREGRSKVLITTNVLARGIDIPTVSMVVNYDLPTLANGQADPATYIHRIGRTGRFGRKGVAISFVHDKNSFNILSAIQKYFGDIEMTRVPTDDWDEVEKIVKKVLKD
partner: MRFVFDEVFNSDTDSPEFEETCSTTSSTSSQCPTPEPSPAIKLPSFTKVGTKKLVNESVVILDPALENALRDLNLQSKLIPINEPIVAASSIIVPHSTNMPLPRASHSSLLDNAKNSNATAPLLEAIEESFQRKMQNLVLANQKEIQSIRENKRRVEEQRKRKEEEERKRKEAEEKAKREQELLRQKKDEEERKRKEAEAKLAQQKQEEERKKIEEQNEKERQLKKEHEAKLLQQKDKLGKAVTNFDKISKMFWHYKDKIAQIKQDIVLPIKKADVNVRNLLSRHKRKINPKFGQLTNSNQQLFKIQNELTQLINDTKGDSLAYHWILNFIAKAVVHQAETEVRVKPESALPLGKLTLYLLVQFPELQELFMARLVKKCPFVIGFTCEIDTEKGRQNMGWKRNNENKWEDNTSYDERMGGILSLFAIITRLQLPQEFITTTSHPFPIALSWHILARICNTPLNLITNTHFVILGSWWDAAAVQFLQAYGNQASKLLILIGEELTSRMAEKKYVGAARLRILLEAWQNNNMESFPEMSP

# Variants of: B1
# EXPERIMENTAL CONDITIONS: with gle1_yeast GLE1, Q12315
ATTRIBUTE MEASURED: effect of a mutation on the interaction

Look over these answered cases.
E323K ... disrupting interaction
T329A ... decreasing interaction
E473K ... disrupting interaction
K382E ... disrupting interaction

Query string: Reported effect of a mutation on the interaction, variant E353K : ____
Result string: decreasing interaction

Query string: Return reported effect of a mutation on the interaction; argument: E473A
Result string: decreasing interaction
